- Tested on: K562 CRISPRi cells
- assayName: Constant region variant library pooled growth screen, K562
- Assay type: cell-based, human
- experimentalParameters: sgRNA constant region variants; relative to the original, un-modified constant region cr995 (= 1)

# molecule, Mean relative activity
records = [
    ("cr610 (nucleic acid, listed as DNA, chemistry not fully specified) guide: GTTTAAGAGCTAAGCTGGAAACAGCATAGCAAGTTTAAATAAGGCTAGTCCGTTATCAAGATGAAAATCTGACACCGAGTCGGTGTT", 1.027),
    ("cr632 (nucleic acid, listed as DNA, chemistry not fully specified) guide: GTTTAAGAGCTAAGCTGGAAACAGCATAGCAAGTTTAAATAAGGCTAGTCCGTTATCAACTTGCAGAAGTGGCACCGAGTCGGTGCT", 1.008),
    ("cr464 (nucleic acid, listed as DNA, chemistry not fully specified) guide: GTTTAAGAGCTAAGCTGGAAACAGCATAGCAAGTTTAAATAAGGCTAGTCCGTTATCACCTTGAAAAAGGGGCACCAAGTTGGTGCT", 1.017),
    ("cr478 (nucleic acid, listed as DNA, chemistry not fully specified) guide: GTTTAAGAGCTAAGCTGGAAACAGCATGGCAAGTTTAAATAAGGCTAGTCCGTTATCAACTTGAAAAAGTGGCACCGAGTCGGTGCT", 0.9898),
]
